Tested on: Candida albicans F7-39/IDE99
Property measured: MIC (µM)
All answers are understood in µM, so give the number only.

Problem: Tell me the measured MIC of CSCC[C@H](NC(=O)CNC(=O)[C@H](Cc1ccccc1)NC(=O)CN)C(=O)N[C@@H](C)C(=O)N[C@@H](CC(C)C)C(=O)N[C@@H](CCCCN)C(=O)N[C@@H](CC(C)C)C(=O)N[C@@H](CC(C)C)C(=O)N[C@@H](CCCCN)C(=O)N[C@@H](CCCCN)C(=O)N[C@H](C(=O)N[C@@H](CC(C)C)C(N)=O)C(C)C [GFGMALKLLKKVL] , please.
Result: 6.3

---

Measurement record for Bacillus subtilis ATCC 23857; quantity recorded: MIC.
All answers are understood in µM, so give the number only.

Problem: Notebook: pull reported MIC for Bacillus subtilis ATCC 23857, entry NCC(=O)N[C@@H](CCCN=C(N)N)C(=O)N[C@@H](Cc1c[nH]c2ccccc12)C(=O)N[C@@H](Cc1c[nH]c2ccccc12)C(=O)N[C@@H](Cc1c[nH]c2ccccc12)C(=O)N[C@@H](CCCN=C(N)N)C(=O)NCC(N)=O
Result: 16

Problem: Notebook: pull reported MIC for Bacillus subtilis ATCC 23857, entry CC[C@H](C)[C@H](NC(=O)[C@@H]1CCCN1C(=O)[C@H](CC(C)C)NC(=O)[C@@H](N)Cc1ccccc1)C(=O)N[C@H](C(=O)N[C@@H](C)C(=O)N[C@@H](CCCCN)C(=O)N[C@@H](CC(C)C)C(=O)N[C@@H](CC(C)C)C(=O)N[C@@H](CO)C(=O)NCC(=O)N[C@@H](CC(C)C)C(=O)N[C@@H](CC(C)C)C(N)=O)C(C)C
Result: 4

---

Provide the recorded MIC for the entries that follow.
All answers are understood in µM, so give the number only.

Problem: Notebook: pull reported MIC for Acinetobacter baumannii ATCC 19606, entry CC[C@H](C)[C@H](NC(=O)[C@H](CCCN=C(N)N)NC(=O)[C@H](CCCCN)NC(=O)[C@H](CC(C)C)NC(=O)[C@H](CC(C)C)NC(=O)CN)C(=O)N[C@@H](CCCCN)C(=O)N[C@H](C(=O)N[C@@H](CC(C)C)C(=O)N[C@@H](CC(C)C)C(N)=O)[C@@H](C)O
Result: 64

Problem: Notebook: pull reported MIC for Acinetobacter baumannii ATCC 19606, entry CC[C@H](C)[C@@H]1NC(=O)CNC(=O)[C@H](CCCN=C(N)N)NC(=O)[C@H](Cc2ccc(O)cc2)NC(=O)[C@@H](NC(=O)[C@@H](NC(=O)[C@H](CCCN=C(N)N)NC(=O)[C@H](Cc2ccccc2)NC(=O)[C@H](C)NC(=O)[C@H](Cc2c[nH]c3ccccc23)NC(=O)[C@@H](N)CCCCN)C(C)C)CSSC[C@@H](C(=O)N[C@@H](Cc2ccc(O)cc2)C(=O)N[C@@H](CCCN=C(N)N)C(=O)N[C@@H](CCCN=C(N)N)C(=O)N[C@@H](C)C(=O)N[C@@H](CCCN=C(N)N)C(=O)O)NC1=O
Result: 0.113

Problem: Notebook: pull reported MIC for Acinetobacter baumannii ATCC 19606, entry CC(C)[C@H](N)C(=O)N[C@@H](CCCN=C(N)N)C(=O)N[C@@H](Cc1c[nH]c2ccccc12)C(=O)N[C@@H](Cc1c[nH]c2ccccc12)C(=O)N[C@@H](Cc1c[nH]c2ccccc12)C(=O)N[C@@H](CCCN=C(N)N)C(=O)N[C@H](C(N)=O)C(C)C
Result: 128
